- Test target: Histone deacetylase 1 (Homo sapiens, UniProt Q13547)
- Sequence (Q13547 whole entry, canonical isoform): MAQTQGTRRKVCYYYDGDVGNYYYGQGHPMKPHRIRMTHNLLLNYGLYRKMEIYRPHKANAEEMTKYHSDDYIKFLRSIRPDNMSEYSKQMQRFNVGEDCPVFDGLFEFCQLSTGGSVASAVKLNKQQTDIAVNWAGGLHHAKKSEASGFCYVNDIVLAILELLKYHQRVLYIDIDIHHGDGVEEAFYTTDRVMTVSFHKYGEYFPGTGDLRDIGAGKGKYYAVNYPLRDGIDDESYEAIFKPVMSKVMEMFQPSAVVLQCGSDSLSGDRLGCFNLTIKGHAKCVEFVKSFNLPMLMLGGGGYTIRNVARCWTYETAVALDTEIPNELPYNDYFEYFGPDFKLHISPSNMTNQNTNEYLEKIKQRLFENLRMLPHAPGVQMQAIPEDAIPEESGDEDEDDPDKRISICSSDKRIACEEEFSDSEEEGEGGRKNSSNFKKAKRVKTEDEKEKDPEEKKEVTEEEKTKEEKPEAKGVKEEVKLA
- Assay summary: Inhibition Assay: The inhibitions of activities of HDAC enzymes by the compounds N1'-[3-fluoro-4-[[7-[4-(hydroxyamino)-4-oxobutoxy]-6-methoxy-4-quinolyl]oxy]phenyl]-N1-(4-fluoro phenyl)cyclopropane-1,1-dicarboxamide prepared in Example 9 and N1'-[3-fluoro-4-[[7-[6-(hydroxyamino)-6-oxohexyloxy]-6-methoxy-4-quinolyl]oxy]phenyl]-N1-(4-fluo rophenyl)cyclopropane-1,1-dicarboxamide prepared in Example 13 were measured by Reaction Biology Corporation (Reaction Biology Corp., One Great Valley Parkway, Suite 2, Malvern, PA 19355, USA . http://www.reactionbiology.com/pages/hdac.htm). The HDAC enzymes tested include the following 11 HDAC isoforms: HDAC1, HDAC2, HDAC3, HDAC4, HDAC5, HDAC6, HDAC7, HDAC8, HDAC9, HDAC10 and HDAC11.Specific steps were as follows: The compound of the present invention was dissolved in dimethyl sulfoxide (DMSO) to make a stock solution of 10 mM. The stock solution was diluted in 4-fold series starting from 10 mM to prepare 10 different dosages.
pIC50: −log10 of the molar value.
Hi there, I'd appreciate the recorded pIC50 for every entry that follows.

Lookup: Notebook: pull reported pIC50 for Histone deacetylase 1 (Homo sapiens, UniProt Q13547), entry COc1cc2c(Oc3ccc(NC(=O)C4(C(=O)Nc5ccc(F)cc5)CC4)cc3F)ccnc2cc1OCCCCCC(=O)NO
Found: < 5.00

Lookup: Try this compound too: COc1cc2c(Oc3ccc(NC(=O)C4(C(=O)Nc5ccc(F)cc5)CC4)cc3F)ccnc2cc1OCCCC(=O)NO
Found: < 5.00

====

- Test target: Histone deacetylase 9 (Homo sapiens)
- Sequence (Q9UKV0 whole entry, canonical isoform): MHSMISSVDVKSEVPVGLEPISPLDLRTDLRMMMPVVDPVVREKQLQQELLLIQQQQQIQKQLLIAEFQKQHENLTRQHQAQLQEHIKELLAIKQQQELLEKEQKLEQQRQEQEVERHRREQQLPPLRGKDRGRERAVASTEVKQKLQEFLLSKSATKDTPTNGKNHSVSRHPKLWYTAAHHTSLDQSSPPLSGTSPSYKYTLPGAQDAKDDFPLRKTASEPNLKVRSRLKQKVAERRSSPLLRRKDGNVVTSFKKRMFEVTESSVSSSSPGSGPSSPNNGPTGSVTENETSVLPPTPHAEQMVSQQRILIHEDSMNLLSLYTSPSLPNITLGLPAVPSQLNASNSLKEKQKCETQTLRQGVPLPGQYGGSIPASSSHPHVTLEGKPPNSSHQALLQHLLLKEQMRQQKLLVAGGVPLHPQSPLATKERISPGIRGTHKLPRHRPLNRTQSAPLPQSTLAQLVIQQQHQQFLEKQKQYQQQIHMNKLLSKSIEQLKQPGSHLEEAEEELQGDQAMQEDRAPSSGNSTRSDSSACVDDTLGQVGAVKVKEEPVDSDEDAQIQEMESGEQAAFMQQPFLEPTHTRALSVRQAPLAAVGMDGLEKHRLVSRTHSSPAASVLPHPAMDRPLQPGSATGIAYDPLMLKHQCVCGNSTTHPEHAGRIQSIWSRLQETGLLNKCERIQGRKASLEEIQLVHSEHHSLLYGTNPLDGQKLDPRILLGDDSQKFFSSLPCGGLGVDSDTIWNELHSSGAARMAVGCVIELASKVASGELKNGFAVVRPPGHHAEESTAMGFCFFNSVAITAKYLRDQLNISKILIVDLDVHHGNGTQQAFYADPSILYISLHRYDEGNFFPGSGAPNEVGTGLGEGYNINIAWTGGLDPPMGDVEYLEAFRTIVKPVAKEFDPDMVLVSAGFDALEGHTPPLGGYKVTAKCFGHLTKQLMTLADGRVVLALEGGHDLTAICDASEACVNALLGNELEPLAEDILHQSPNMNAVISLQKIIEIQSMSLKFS
- Assay summary: Inhibition Assay: The inhibitions of activities of HDAC enzymes by the compounds N1'-[3-fluoro-4-[[7-[4-(hydroxyamino)-4-oxobutoxy]-6-methoxy-4-quinolyl]oxy]phenyl]-N1-(4-fluoro phenyl)cyclopropane-1,1-dicarboxamide prepared in Example 9 and N1'-[3-fluoro-4-[[7-[6-(hydroxyamino)-6-oxohexyloxy]-6-methoxy-4-quinolyl]oxy]phenyl]-N1-(4-fluo rophenyl)cyclopropane-1,1-dicarboxamide prepared in Example 13 were measured by Reaction Biology Corporation (Reaction Biology Corp., One Great Valley Parkway, Suite 2, Malvern, PA 19355, USA . http://www.reactionbiology.com/pages/hdac.htm). The HDAC enzymes tested include the following 11 HDAC isoforms: HDAC1, HDAC2, HDAC3, HDAC4, HDAC5, HDAC6, HDAC7, HDAC8, HDAC9, HDAC10 and HDAC11.Specific steps were as follows: The compound of the present invention was dissolved in dimethyl sulfoxide (DMSO) to make a stock solution of 10 mM. The stock solution was diluted in 4-fold series starting from 10 mM to prepare 10 different dosages.
pIC50: −log10 of the molar value.
Reported endpoint: pIC50

Lookup: Can you share its pIC50? I mean this compound: COc1cc2c(Oc3ccc(NC(=O)C4(C(=O)Nc5ccc(F)cc5)CC4)cc3F)ccnc2cc1OCCCCCC(=O)NO
Found: < 5.00

Lookup: Try this compound too: COc1cc2c(Oc3ccc(NC(=O)C4(C(=O)Nc5ccc(F)cc5)CC4)cc3F)ccnc2cc1OCCCC(=O)NO
Found: < 5.00

====

- Test target: Hepatocyte growth factor receptor (Homo sapiens, UniProt P08581)
- Sequence (P08581 whole entry): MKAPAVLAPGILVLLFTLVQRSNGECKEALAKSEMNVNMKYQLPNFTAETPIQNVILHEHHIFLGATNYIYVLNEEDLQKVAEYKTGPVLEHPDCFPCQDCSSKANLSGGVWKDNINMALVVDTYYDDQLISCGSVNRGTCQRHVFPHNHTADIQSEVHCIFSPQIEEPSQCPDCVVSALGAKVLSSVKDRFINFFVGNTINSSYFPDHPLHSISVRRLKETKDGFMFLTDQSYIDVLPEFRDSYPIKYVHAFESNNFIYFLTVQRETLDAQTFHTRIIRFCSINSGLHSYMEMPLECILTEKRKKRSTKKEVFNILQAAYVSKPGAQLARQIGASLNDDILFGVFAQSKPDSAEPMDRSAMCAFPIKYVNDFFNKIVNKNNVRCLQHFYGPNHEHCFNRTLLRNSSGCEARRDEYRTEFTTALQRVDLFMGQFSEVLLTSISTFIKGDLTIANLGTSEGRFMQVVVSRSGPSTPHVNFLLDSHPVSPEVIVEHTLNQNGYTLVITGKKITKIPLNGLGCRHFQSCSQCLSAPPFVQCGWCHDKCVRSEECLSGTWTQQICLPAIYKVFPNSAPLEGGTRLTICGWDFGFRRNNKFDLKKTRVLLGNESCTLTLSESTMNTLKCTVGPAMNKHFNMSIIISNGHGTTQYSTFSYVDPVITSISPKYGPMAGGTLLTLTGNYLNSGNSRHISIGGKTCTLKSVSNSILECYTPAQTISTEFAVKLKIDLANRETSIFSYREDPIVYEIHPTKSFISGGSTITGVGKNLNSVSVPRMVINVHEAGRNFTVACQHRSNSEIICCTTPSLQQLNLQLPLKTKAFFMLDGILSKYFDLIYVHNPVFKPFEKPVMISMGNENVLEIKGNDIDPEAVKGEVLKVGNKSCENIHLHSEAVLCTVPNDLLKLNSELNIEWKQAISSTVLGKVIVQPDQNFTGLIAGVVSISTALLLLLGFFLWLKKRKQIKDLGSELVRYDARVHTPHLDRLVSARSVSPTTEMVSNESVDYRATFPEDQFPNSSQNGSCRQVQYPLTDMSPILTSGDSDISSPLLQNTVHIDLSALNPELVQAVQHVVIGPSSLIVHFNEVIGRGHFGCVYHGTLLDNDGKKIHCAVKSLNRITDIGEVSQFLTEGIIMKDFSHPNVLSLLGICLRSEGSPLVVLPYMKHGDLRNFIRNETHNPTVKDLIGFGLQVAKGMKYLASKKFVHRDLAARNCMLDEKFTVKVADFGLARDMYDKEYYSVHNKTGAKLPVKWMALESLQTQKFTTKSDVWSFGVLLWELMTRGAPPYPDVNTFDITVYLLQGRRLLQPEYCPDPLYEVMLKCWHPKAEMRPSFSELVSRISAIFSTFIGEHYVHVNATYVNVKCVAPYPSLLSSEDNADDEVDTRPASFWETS
- Assay summary: Sci. USA 1988, 85(23), 9312). Specific steps were as follows: The compound of the present invention was dissolved in dimethyl sulfoxide (DMSO) to make a stock solution of 2 mM, then the stock solution was diluted with DMSO following a 7 half-log series to concentrations ranging from 2 uM to 600 pM.
Reported endpoint: IC50

Lookup: Notebook: pull reported IC50 for Hepatocyte growth factor receptor (Homo sapiens, UniProt P08581), entry COc1cc2c(Oc3ccc(NC(=O)C4(C(=O)Nc5ccc(F)cc5)CC4)cc3F)ccnc2cc1OCCCC(=O)NO
Found: 119 nM
